experiment: water solubility / miscibility with water; format: physicochemical
measurement_type: water solubility (miscibility with water)

CCCC[n+]1ccccc1.N#C[N-]C#N [N-butylpyridinium dicyanamide] ... water-miscible
CCCCCCCC[n+]1cccc(C)c1.N#C[N-]C#N [N-octyl-3-methylpyridinium dicyanamide, 3-Methyl-1-octylpyridinium dicyanamide] ... water-immiscible
CCCC[n+]1cccc(C)c1.N#C[N-]C#N [N-butyl-3-methylpyridinium dicyanamide, 3-Methyl-1-butylpyridinium dicyanamide] ... water-miscible
CCCCCCCC[n+]1ccccc1.N#C[N-]C#N [N-octylpyridinium dicyanamide] ... water-immiscible

Origin of the recorded values: patent US20120330023A1
